Exercise: for every item that follows, state its recorded EC50.
- Assayed target: UniProtKB G5EF15
- Sequence (G5EF15 whole entry, the tested form may be a part): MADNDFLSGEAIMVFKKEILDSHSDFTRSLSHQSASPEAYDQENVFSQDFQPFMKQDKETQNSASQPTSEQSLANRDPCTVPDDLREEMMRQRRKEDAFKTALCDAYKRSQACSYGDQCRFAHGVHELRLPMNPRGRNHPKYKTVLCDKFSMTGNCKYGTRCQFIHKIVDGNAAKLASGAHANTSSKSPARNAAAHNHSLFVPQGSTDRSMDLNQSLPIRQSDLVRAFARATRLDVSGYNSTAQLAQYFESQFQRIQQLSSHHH
- Protocol description: inhibitors of POS-1/mex-3 RNA binding, dose response, biochemical, fluorescence polarization (AID 1964);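 also: purified POS-1 fused to maltose binding protein made in E. coli; potency of compounds blocking POS-1 binding to fluorescent RNA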
Calls of active or inactive are those of the source. Rule as the data show it: actives have a measured EC50 and inactives only a lower limit.

Some solved cases for reference:
Compound: CN1CC=C2C(C#N)=C(N)C(C#N)(C#N)C(c3ccncc3)C2C1 (centres undefined)
EC50: 52.9 µM (inconclusive)
--
Compound: CCCCc1ccc(/C=C2\C(=O)ON=C2c2ccccc2)s1
EC50: 68 µM (active)
--
Compound: COC(=O)Cn1cc(C=C2C(=O)N(C)C(=O)N(C)C2=O)c2ccccc21
EC50: 3.15 µM (inconclusive)
--
Compound: COc1ccc(OC)c(/C=c2\sc3nc(-c4cccs4)nn3c2=O)c1
EC50: > 300 µM (not active)
--
Compound: Cc1n[nH]c(N=Nc2ccc(O)cc2)n1
EC50: > 300 µM (not active)
--
Compound: O=C1NC(=O)N(c2ccccc2)C(=O)/C1=C/c1coc2ccc(O)cc2c1=O
EC50: > 300 µM (not active)
--
Compound: CCOC(=O)[C@]1(C#N)[C@@H]2C=CC(C(C)=O)=CN2[C@@H](C(N)=O)[C@@H]1c1ccsc1
EC50: 2.5 µM (active)
--
Compound: C=CCN1C(=O)/C(=C2/Sc3ccc(OC)cc3N2CC)SC1=S
EC50: > 300 µM (inconclusive)

Give EC50 for each listed item.
1. Cc1nc(N2CCN(Cc3ccccc3)CC2)c(C#N)c2c1COC(C)(C)C2
2. CCO/C(C)=N/n1c2nc3ccccc3nc2c2c(=O)n(C3CCCC3)c(C)nc21
3. Nc1n[nH]c(Sc2ccc([N+](=O)[O-])cc2[N+](=O)[O-])n1
4. Cc1ccc(-n2ncc3c(NNC(=O)c4ccco4)ncnc32)cc1C
5. Fc1ccc2c(c1)C1C=CCC1C(c1cc3c(cc1Br)OCO3)N2 (centres undefined)
6. CCOC(=O)Cc1nc2ccccc2n(CC#N)c1=O

1. 94.5 µM (active)
2. > 300 µM (not active)
3. 85.7 µM (active)
4. > 300 µM (not active)
5. > 300 µM (not active)
6. > 300 µM (not active)
